biological target: Adenosine receptor A1 (Homo sapiens); test: Displacement of [3H]DPCPX from human adenosine receptor A1 expressed in HEK293 cell membranes at 0.1 uM after 90 mins by liquid scintillation counting method relative to control
Reported property: inhibition (%)

| Molecule | Unit string | inhibition |
| --- | --- | --- |
| CCCn1c(=O)c2[nH]c(-c3cnn(CC4CC(=O)N(c5cccc(C(F)(F)F)c5)C4)c3)nc2n(CCC)c1=O (stereo not drawn) | % | 25 |
| CCCn1c(=O)c2[nH]c(-c3cnn(CC4CC(=O)N(c5ccc(F)cc5)C4)c3)nc2n(CC)c1=O (stereo not drawn) | % | 22 |
| CCCn1c(=O)c2[nH]c(-c3cnn(CC4CCN(c5ccc(OC(F)(F)F)cc5)C4=O)c3)nc2n(CCC)c1=O (stereo not drawn) | % | 51 |
| CCCn1c(=O)c2[nH]c(-c3cc(OCC4CC(=O)N(c5ccc(F)cc5)C4)no3)nc2n(CCC)c1=O (stereo not drawn) | % | 0 |
| CCCn1c(=O)c2[nH]c(-c3cnn(CC4CC(=O)N(c5ccc(C)cc5)C4)c3)nc2n(CCC)c1=O (stereo not drawn) | % | 33 |
| CCCn1c(=O)c2[nH]c(-c3cnn(CC(=O)N4CCN(c5ccc(C(F)(F)F)cc5)CC4)c3)nc2n(CCC)c1=O | % | 53 |

A. CCCn1c(=O)c2[nH]c(-c3cnn(CC4CCN(c5ccc(C)cc5)C4)c3)nc2n(CCC)c1=O (stereo not drawn)
B. CCCn1c(=O)c2[nH]c(-c3cnn(CC4CC(=O)N(c5ccc(C(F)(F)F)cc5)C4)c3)nc2n(CCC)c1=O (stereo not drawn)
Out of A and B , name the one with the higher inhibition. Identify your pick by its label.
B
(B: 49%, A: 26%)

----------
target: Adenosine receptor A2b (Homo sapiens, UniProt P29275); assay: Displacement of [3H]-MRS-1754 from human adenosine receptor A2b expressed in HEK293 cell membranes after 90 mins by liquid scintillation counting method
Sequence (P29275 whole entry): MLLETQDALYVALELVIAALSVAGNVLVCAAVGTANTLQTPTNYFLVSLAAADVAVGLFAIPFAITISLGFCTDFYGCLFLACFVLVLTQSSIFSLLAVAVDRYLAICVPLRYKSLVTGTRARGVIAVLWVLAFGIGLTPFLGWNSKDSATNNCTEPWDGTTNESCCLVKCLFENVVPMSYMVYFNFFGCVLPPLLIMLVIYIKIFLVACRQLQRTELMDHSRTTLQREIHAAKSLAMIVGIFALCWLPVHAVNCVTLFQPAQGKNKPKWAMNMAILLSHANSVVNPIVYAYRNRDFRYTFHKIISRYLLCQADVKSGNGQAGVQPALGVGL
pKi: −log10 of the molar value.
Reported property: pKi

Observe how each entry below is paired with its result.
| Molecule | Recorded measurement |
| --- | --- |
| CCCn1c(=O)c2[nH]c(-c3cnn(CC(=O)N4CCN(c5ccc(F)cc5F)CC4)c3)nc2n(CCC)c1=O | 7.97 |
| CCCn1c(=O)c2[nH]c(-c3cnn(CC4CCN(c5cccc(OC)c5)C4)c3)nc2n(CCC)c1=O (centres undefined) | 7.86 |

A. CCCn1c(=O)c2[nH]c(-c3cnn(CC4CCN(c5cccc(C(F)(F)F)c5)C4)c3)nc2n(CCC)c1=O (centres undefined)
B. CCCn1c(=O)c2[nH]c(-c3cnn(CC4CC(=O)N(c5cccc(F)c5)C4)c3)nc2n(CCC)c1=O (centres undefined)
When the recorded pKi values are compared, which is smaller: that of A or that of B ? Write down the label attached to your selection.
B
(B: 7.39, A: 8.44)

----------
molecular target: UniProt:P29274; assay: Displacement of [3H]-ZM-241385 from human adenosine receptor A2a expressed in HEK293 cell membranes at 0.1 uM after 90 mins by liquid scintillation counting method relative to control
Sequence (P29274 whole entry): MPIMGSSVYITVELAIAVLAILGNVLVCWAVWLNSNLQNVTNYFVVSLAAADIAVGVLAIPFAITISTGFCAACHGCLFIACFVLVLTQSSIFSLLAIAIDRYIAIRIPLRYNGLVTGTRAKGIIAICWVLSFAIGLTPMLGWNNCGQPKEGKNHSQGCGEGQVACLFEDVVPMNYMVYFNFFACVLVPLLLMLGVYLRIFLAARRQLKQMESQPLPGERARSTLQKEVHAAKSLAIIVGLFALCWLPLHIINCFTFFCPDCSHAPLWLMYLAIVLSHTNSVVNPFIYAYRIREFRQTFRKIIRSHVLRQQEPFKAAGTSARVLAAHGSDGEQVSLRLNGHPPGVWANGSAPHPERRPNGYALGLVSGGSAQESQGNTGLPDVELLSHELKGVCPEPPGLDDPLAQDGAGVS
Reported property: inhibition (%)

Consider the reported inhibition for these compounds:
| Compound | Assayed system | inhibition / % |
| --- | --- | --- |
| CCCn1c(=O)c2[nH]c(-c3cnn(CC4CCN(c5ccc(OC(F)(F)F)cc5)C4=O)c3)nc2n(CCC)c1=O (configuration not stated) | UniProt:P29274 | 7 |
| CCCn1c(=O)c2[nH]c(-c3cnn(CC4CC(=O)N(c5ccc(F)cc5)C4)c3)nc2n(CC)c1=O (configuration not stated) | UniProt:P29274 | 33 |
| CCCn1c(=O)c2[nH]c(-c3ccc(OCC4CC(=O)N(c5ccc(C(F)(F)F)cc5)C4)cc3)nc2n(CCC)c1=O (configuration not stated) | UniProt:P29274 | 60 |
| CCCn1c(=O)c2[nH]c(-c3cnn(CC4CCN(c5ccc(C)cc5)C4)c3)nc2n(CCC)c1=O (configuration not stated) | UniProt:P29274 | 51 |
| CCCn1c(=O)c2[nH]c(-c3cnn(CC(=O)N4CCN(c5ccc(C(F)(F)F)cc5)CC4)c3)nc2n(CCC)c1=O | UniProt:P29274 | 71 |

I. CCCn1c(=O)c2[nH]c(-c3cnn(CC(=O)N4CCN(c5cccc(C(F)(F)F)c5)CC4)c3)nc2n(CCC)c1=O
II. CCCn1c(=O)c2[nH]c(-c3cc(OCC4CC(=O)N(c5ccc(F)cc5)C4)no3)nc2n(CCC)c1=O (configuration not stated)
Min inhibition? I | II Return value: the label identifying the chosen record.
II
(II: 0%, I: 37%)

P. CCCn1c(=O)c2[nH]c(-c3cnn(CC4CC(=O)N(c5cccc(F)c5)C4)c3)nc2n(CCC)c1=O (configuration not stated)
Q. CCCn1c(=O)c2[nH]c(-c3cnn(CC4CC(=O)N(c5cccc(OC)c5)C4)c3)nc2n(CCC)c1=O (configuration not stated)
R. CCCn1c(=O)c2[nH]c(-c3cnn(CC4CC(=O)N(c5cccc(C(F)(F)F)c5)C4)c3)nc2n(CC)c1=O (configuration not stated)
List items by inhibition in falling order. Quick reminder: the answer is the labels in the order asked.
P, Q, R
(P: 68%, Q: 46%, R: 23%)

1. CCCn1c(=O)c2[nH]c(-c3cnn(CC(O)C4CC(=O)N(c5cccc(C(F)(F)F)c5)C4)c3)nc2n(CCC)c1=O (configuration not stated)
2. CCCn1c(=O)c2[nH]c(-c3ccc(OCC4CC(=O)N(c5ccc(F)cc5)C4)cc3)nc2n(CCC)c1=O (configuration not stated)
3. CCCn1c(=O)c2[nH]c(-c3cnn(C(C)C4CC(=O)N(c5cccc(C(F)(F)F)c5)C4)c3)nc2n(CCC)c1=O (configuration not stated)
4. CCCn1c(=O)c2[nH]c(-c3cnn(CC4CCN(c5ccc(OC(F)(F)F)cc5)C4)c3)nc2n(CCC)c1=O (configuration not stated)
Returns the items ordered by inhibition, from maximum to minimum. # list labels per requested ordering
2, 1, 4, 3
(2: 89%, 1: 60%, 4: 26%, 3: 15%)

A. CCCn1c(=O)c2[nH]c(-c3ccc(OCC4CC(=O)N(c5ccc(C(F)(F)F)cc5)C4)nc3)nc2n(CCC)c1=O (configuration not stated)
B. CCCn1c(=O)c2[nH]c(-c3ccc(OCC4CC(=O)N(c5cccc(C(F)(F)F)c5)C4)cc3)nc2n(CCC)c1=O (configuration not stated)
C. CCCn1c(=O)c2[nH]c(-c3cc(OCC4CC(=O)N(c5ccc(C(F)(F)F)cc5)C4)no3)nc2n(CCC)c1=O (configuration not stated)
D. CCCn1c(=O)c2[nH]c(-c3cnn(CC4CCN(c5cccc(C(F)(F)F)c5)C4=O)c3)nc2n(CCC)c1=O (configuration not stated)
Let's sort these by inhibition, smallest first. Go ahead? Ranked list of labels, please, in the requested order.
C, D, A, B
(C: 18%, D: 30%, A: 46%, B: 80%)

A. CCCn1c(=O)c2[nH]c(-c3cnn(CC(=O)N4CCN(c5ccc(F)cc5F)CC4)c3)nc2n(CCC)c1=O
B. CCCn1c(=O)c2[nH]c(-c3ccc(OCC4CC(=O)N(c5ccc(F)cc5)C4)nc3)nc2n(CCC)c1=O (configuration not stated)
Endpoint returns whichever of A and B has the numerically higher inhibition. Use the label to indicate which entry you chose.
B
(B: 80%, A: 56%)

I. CCCn1c(=O)c2[nH]c(-c3cnn(CC4CC(=O)N(c5cccc(OC(F)(F)F)c5)C4)c3)nc2n(CCC)c1=O (configuration not stated)
II. CCCn1c(=O)c2[nH]c(-c3cnn(CC(=O)N4CCN(c5ccc(F)c(Cl)c5)CC4)c3)nc2n(CCC)c1=O
III. CCCn1c(=O)c2[nH]c(-c3cnn(CC4CC(=O)N(c5cccc(OC(F)(F)F)c5)C4)c3)nc2n(CC)c1=O (configuration not stated)
Hello, I need these entries ordered by inhibition, highest reading first. Thanks! Enter labels, ranked according to the request.
II, I, III
(II: 72%, I: 49%, III: 16%)

P. CCCn1c(=O)c2[nH]c(-c3cnn(CC4CCN(c5ccc(OC)cc5)C4)c3)nc2n(CCC)c1=O (configuration not stated)
Q. CCCn1c(=O)c2[nH]c(-c3cnn(CC4CC(=O)N(c5cccc(F)c5)C4)c3)nc2n(CC)c1=O (configuration not stated)
R. CCCn1c(=O)c2[nH]c(-c3ccc(OCC4CC(=O)N(c5cccc(F)c5)C4)cc3)nc2n(CCC)c1=O (configuration not stated)
Arrange the 3 compounds by rising inhibition, starting with the smallest. Please list each label once, in the requested order.
Q, P, R
(Q: 37%, P: 53%, R: 89%)

----------
biological target: Adenosine receptor A2b (Homo sapiens); assay: Displacement of [3H]-MRS-1754 from human adenosine receptor A2b expressed in HEK293 cell membranes after 90 mins by liquid scintillation counting method
pKi: −log10 of the molar value.
Reported property: pKi

| Molecule | Reported property | Recorded measurement |
| --- | --- | --- |
| CCCn1c(=O)c2[nH]c(-c3cnn(CC4CC(=O)N(c5ccc(OC)cc5)C4)c3)nc2n(CCC)c1=O (centres undefined) | pKi | 8.05 |

a. CCCn1c(=O)c2[nH]c(-c3cnn(CC(=O)N4CCN(c5ccc(F)c(Cl)c5)CC4)c3)nc2n(CCC)c1=O
b. CCCn1c(=O)c2[nH]c(-c3cnn(CC4CCN(c5ccc(OC(F)(F)F)cc5)C4)c3)nc2n(CCC)c1=O (centres undefined)
c. CCCn1c(=O)c2[nH]c(-c3cc(OCC4CC(=O)N(c5cccc(F)c5)C4)no3)nc2n(CCC)c1=O (centres undefined)
Let's sort these by pKi, smallest first. Go ahead? Output spec: labels arranged per the requested ranking.
c, b, a
(c: 7.05, b: 7.85, a: 8.74)
